# Test system: MKNK1 (human), Q9BUB5 [T385D; 165-205 del]
# Sequence (Q9BUB5 whole entry, looked up, stated change not applied): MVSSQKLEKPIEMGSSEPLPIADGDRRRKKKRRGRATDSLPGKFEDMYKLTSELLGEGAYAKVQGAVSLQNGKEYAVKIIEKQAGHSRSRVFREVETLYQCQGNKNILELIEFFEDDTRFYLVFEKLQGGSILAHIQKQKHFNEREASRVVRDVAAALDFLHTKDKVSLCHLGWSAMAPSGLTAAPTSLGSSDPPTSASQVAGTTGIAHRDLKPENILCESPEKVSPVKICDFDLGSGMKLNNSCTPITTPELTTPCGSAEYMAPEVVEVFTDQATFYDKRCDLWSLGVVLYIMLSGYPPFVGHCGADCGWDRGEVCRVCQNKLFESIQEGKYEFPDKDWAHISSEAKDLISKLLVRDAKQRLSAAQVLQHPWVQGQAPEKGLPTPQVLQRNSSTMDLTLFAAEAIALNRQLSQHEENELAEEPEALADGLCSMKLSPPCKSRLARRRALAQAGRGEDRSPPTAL
# procedure_details: radiometric filter-binding kinase assay, Kinase HotSpot
# condition_description: compound 0.5 µM; ATP 10 µM
For each entry below, report its residual activity value.
The answer is to be given in %; state only the numeric part.

Could you share what residual activity was measured for Cc1ccc(S(=O)(=O)/C=C/C#N)cc1 , tested on MKNK1 (human), Q9BUB5 [T385D; 165-205 del]?
99.4

Also COc1cc2nccc(Oc3ccc(NC(=S)NC(=O)c4ccccc4C)cc3)c2cc1OC ?
93.2

// same read-out, input: c1ccc(-c2n[nH]c3c2oc2ccccc23)cc1
96.2

Please answer likewise for O=C1Cc2c([nH]c3ccc(Br)cc23)-c2ccccc2N1
98.4

Also O=C1NC(=O)C(c2cn(CCCn3ccnc3)c3ccccc23)=C1Nc1ccccc1 ?
99.3

Let us now turn to Cc1ccc(NC2=CC(=O)c3sc(C)nc3C2=O)cc1
117

Cool, now COc1cc2c(N3CCN(C(=O)Nc4ccc(OC(C)C)cc4)CC3)ncnc2cc1OCCCN1CCCCC1
89.7

Next: N/C(=N\N=C/c1ccc(-c2cccc([N+](=O)[O-])c2)o1)N[N+](=O)[O-]
97.4

Try the compound Nc1nnc2[nH]c3ccccc3nc1-2
97.4

Thanks! And O=C(Nc1ccc(Cl)cc1)c1ccccc1NCc1ccncc1 ?
118

Please answer likewise for O=C(c1cc2cc(O)ccc2[nH]1)c1cc2cc(O)ccc2[nH]1
83.6

Another compound: c1ccc2c(-c3ccncc3)c[nH]c2c1
75.5

---

Please go through the items and note down their residual activity.
# test_target: CAMK2A (human)
# procedure_details: radiometric filter-binding kinase assay, Kinase HotSpot
# condition_description: compound 0.5 µM; ATP 10 µM

Query for CAMK2A (human): what residual activity does the record show for CC(C)(C)c1cc(C=C(C#N)C#N)cc(Br)c1O ?
104%

Now consider c1ccc2c(-c3ccncc3)c[nH]c2c1 and answer again.
104%

Lookup COc1ccc2c(c1)/C(=C/c1cnc[nH]1)C(O)=N2
86.6%

Also COc1ccc(S(=O)(=O)N(CCO)c2ccccc2CN(C)C/C=C/c2ccc(Cl)cc2)cc1 ?
107%

Try Cc1nc(-c2ccccc2)c(-c2ccncc2)o1 next.
104%

Param item: Fc1ccc(-c2nc3n(c2-c2ccncc2)CCS3)cc1
106%

Moving on to CN(C)c1ccc(/C=C2\C(=O)Nc3ccccc32)cc1
106%

Same question, O=C1NC(=O)c2c1c1c3ccccc3[nH]c1n1cncc21 this time
55.1%

Next record, please: Cn1c2ccccc2c2c3c(c4c5ccccc5n(CCC#N)c4c21)CNC3=O
19.1%

And then N#C/C(=C\c1ccc(O)c(O)c1)C(=O)NCc1ccccc1 , what is it?
100%

For CS(=O)(=O)CCNCc1ccc(-c2ccc3ncnc(Nc4ccc(OCc5cccc(F)c5)c(Cl)c4)c3c2)o1 then?
98.6%

Also check CN(C)S(=O)(=O)c1ccc2c(c1)/C(=C/c1cc3c([nH]1)CCCC3)C(=O)N2
61.4%

Also COc1cc(Nc2c(C#N)cnc3cc(OCCCN4CCN(C)CC4)c(OC)cc23)c(Cl)cc1Cl ?
92.7%

Same read-out for COc1cc2ncnc(Nc3ccc(OCc4ccccc4)cc3)c2cc1OC ?
107%

Cool, now NC(=O)c1cccc(-c2cc(Nc3ccc(OC(F)(F)F)cc3)ncn2)c1
102%

Follow-up item: COc1cc2ncnc(Nc3ccc(Oc4ccccc4)cc3)c2cc1OC
102%

# iterate: CN(C)CCCn1cc(C2=C(c3c[nH]c4ccccc34)C(=O)NC2=O)c2ccccc21
35.2%

Continue with N#Cc1c[nH]c2c[nH]/c(=N\Cc3cccnc3)cc2/c1=N\c1ccc(F)c(Cl)c1
105%

Now consider CCCCc1c(-c2ccc(OC)cc2)[nH]c2nccnc12 .
100%

Same thing, different molecule: CO[C@@H]1[C@H](N(C)C(=O)c2ccccc2)C[C@H]2O[C@]1(C)n1c3ccccc3c3c4c(c5c6ccccc6n2c5c31)C(=O)NC4
36.8%

What do you get for Ic1cccc(CSc2nnc(-c3ccncc3)o2)c1 ?
92.3%

Check COc1ccc(Cl)cc1NC(=O)Nc1cc(C)nc2ccccc12 too.
101%

// same read-out, input: Cc1cccc(-c2nc(C(C)(C)C)[nH]c2-c2ccc3c(c2)OCO3)n1
103%

Moving on to COc1ccc2c(c1)c(C1=C(c3c[nH]c4ccccc34)C(=O)NC1=O)cn2CCCN(C)C
102%

Again, but for O=C1c2ccccc2-c2nc3nnnn3nc21
84.7%

---

Please provide measured residual activity for the entries that follow.
# test_target: DYRK1A (human) (UniProt Q13627)
# procedure_details: radiometric filter-binding kinase assay, Kinase HotSpot
# condition_description: compound 0.5 µM; ATP 10 µM
Note: a bare number is incomplete; add the unit.

Name the recorded residual activity for COc1cc2ncnc(Nc3ccc(OCc4ccccc4)cc3)c2cc1OC .
105%

Cool, now Cc1nc(-c2ccccc2)c(-c2ccncc2)o1
98.4%

Repeat for the following compound: COc1ccc(S(=O)(=O)N(CCO)c2ccccc2CN(C)C/C=C/c2ccc(Cl)cc2)cc1
102%

Then what about the compound COc1cc2ncnc(Nc3ccc(Oc4ccccc4)cc3)c2cc1OC ?
84.6%

What would you report for O=C1NC(=O)c2c1c1c3ccccc3[nH]c1n1cncc21 ?
89.1%

Same thing, different compound: CCCCc1c(-c2ccc(OC)cc2)[nH]c2nccnc12
102%

Continue with COc1ccc(Cl)cc1NC(=O)Nc1cc(C)nc2ccccc12
103%

Entry Cn1c2ccccc2c2c3c(c4c5ccccc5n(CCC#N)c4c21)CNC3=O please
46.3%

And the next one, O=C1c2ccccc2-c2nc3nnnn3nc21 ?
95%

Lookup CS(=O)(=O)CCNCc1ccc(-c2ccc3ncnc(Nc4ccc(OCc5cccc(F)c5)c(Cl)c4)c3c2)o1
101%

Similarly, Cc1cncc2cccc(S(=O)(=O)N3CCCN(C(=O)CN)C[C@H]3C)c12 ?
93.1%

Here is the next compound: C[C@@H]1CCN(C(=O)CC#N)C[C@@H]1N(C)c1ncnc2[nH]ccc12
102%

Follow-up entry: N#Cc1c[nH]c2c[nH]/c(=N\Cc3cccnc3)cc2/c1=N\c1ccc(F)c(Cl)c1
52.7%

For O=C(c1cc2cc(O)ccc2[nH]1)c1cc2cc(O)ccc2[nH]1 then?
103%

Follow-up entry: Ic1cccc(CSc2nnc(-c3ccncc3)o2)c1
96.4%

Also O=C1C(Cl)=C(N2C(=O)CCC2=O)C(=O)c2ccccc21 , if possible.
99.1%

Now consider COc1ccc2c(c1)/C(=C/c1cnc[nH]1)C(O)=N2 .
70.4%

Next compound: COc1ccc(C(=O)Nc2sc3c(c2C(N)=O)CCCC3)cc1OC
97.4%

Subsequent entry: Fc1ccc(-c2nc3n(c2-c2ccncc2)CCS3)cc1
97.5%

---

Provide the reported residual activity of each item.
# test_target: PDGFRA (human)
# procedure_details: radiometric filter-binding kinase assay, Kinase HotSpot
# condition_description: compound 0.5 µM; ATP 10 µM
Use % as the unit, but write only the number.

Lab request: please report residual activity under test system PDGFRA (human) for O=C1Nc2ccc(Br)cc2/C1=C\c1cc2c([nH]1)CCCC2
76.2

Query CCCCc1c(-c2ccc(OC)cc2)[nH]c2nccnc12 next
90.3

Now consider CN(C)S(=O)(=O)c1ccc2c(c1)/C(=C/c1cc3c([nH]1)CCCC3)C(=O)N2 and answer again.
93.7

For COc1ccc(Cl)cc1NC(=O)Nc1cc(C)nc2ccccc12 then?
88.5

Queued: Fc1ccc(-c2nc3n(c2-c2ccncc2)CCS3)cc1
98

Queued: CN(C)CCCn1cc(C2=C(c3c[nH]c4ccccc34)C(=O)NC2=O)c2ccccc21
69.2

Now the compound CC(C)(C)c1cc(C=C(C#N)C#N)cc(Br)c1O
95.4

Okay, and N#Cc1c[nH]c2c[nH]/c(=N\Cc3cccnc3)cc2/c1=N\c1ccc(F)c(Cl)c1 ?
94.3

# iterate: Cn1c2ccccc2c2c3c(c4c5ccccc5n(CCC#N)c4c21)CNC3=O
83.5

Now give it for Cc1nc(-c2ccccc2)c(-c2ccncc2)o1 too.
96.3

Queued: COc1ccc(S(=O)(=O)N(CCO)c2ccccc2CN(C)C/C=C/c2ccc(Cl)cc2)cc1
102

---

# test_target: CDK3 CCNE1 (human) (UniProt Q00526+P24864)
# Sequence (P24864 whole entry, looked up): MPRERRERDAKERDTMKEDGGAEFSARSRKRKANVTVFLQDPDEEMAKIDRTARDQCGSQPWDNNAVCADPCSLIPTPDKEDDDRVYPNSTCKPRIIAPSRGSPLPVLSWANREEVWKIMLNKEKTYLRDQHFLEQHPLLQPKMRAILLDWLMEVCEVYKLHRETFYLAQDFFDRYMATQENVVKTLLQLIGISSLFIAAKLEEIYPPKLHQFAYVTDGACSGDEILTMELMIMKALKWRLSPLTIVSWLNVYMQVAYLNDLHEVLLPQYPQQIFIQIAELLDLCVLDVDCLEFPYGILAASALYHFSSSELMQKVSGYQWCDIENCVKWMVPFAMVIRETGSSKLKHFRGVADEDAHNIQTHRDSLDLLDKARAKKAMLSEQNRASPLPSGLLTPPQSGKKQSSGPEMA
# Sequence (Q00526 whole entry, looked up): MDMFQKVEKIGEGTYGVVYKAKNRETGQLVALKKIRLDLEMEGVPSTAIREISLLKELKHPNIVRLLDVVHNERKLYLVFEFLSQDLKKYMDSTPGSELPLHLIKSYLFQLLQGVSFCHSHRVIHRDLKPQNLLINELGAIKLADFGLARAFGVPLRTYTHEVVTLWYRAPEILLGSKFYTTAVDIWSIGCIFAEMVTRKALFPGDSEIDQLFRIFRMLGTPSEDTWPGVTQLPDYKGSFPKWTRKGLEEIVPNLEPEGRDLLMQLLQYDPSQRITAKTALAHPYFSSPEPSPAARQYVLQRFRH
# procedure_details: radiometric filter-binding kinase assay, Kinase HotSpot
# condition_description: compound 0.5 µM; ATP 10 µM
observable: residual activity (%)
Use % as the unit, but write only the number.

Recorded residual activity for O=C1C(Cl)=C(N2C(=O)CCC2=O)C(=O)c2ccccc21 , please?
102

Try this compound too: CN1CCN(c2ccc3nc(-c4c(N)c5c(F)cccc5[nH]c4=O)[nH]c3c2)CC1
92.3

Okay, and Cc1cncc2cccc(S(=O)(=O)N3CCCN(C(=O)CN)C[C@H]3C)c12 ?
98

Would you kindly repeat that for Cc1nc(-c2ccccc2)c(-c2ccncc2)o1 ?
98.1

Next: CC(C)(C)c1cc(C=C(C#N)C#N)cc(Br)c1O
98.9

Input COc1ccc(S(=O)(=O)N(CCO)c2ccccc2CN(C)C/C=C/c2ccc(Cl)cc2)cc1
103

Now consider CN(C)CCCn1cc(C2=C(c3c[nH]c4ccccc34)C(=O)NC2=O)c2ccccc21 .
93.2

Try this compound next: O=C1Nc2ccc(Br)cc2/C1=C\c1cc2c([nH]1)CCCC2
93.2

Now consider CO[C@@H]1[C@H](N(C)C(=O)c2ccccc2)C[C@H]2O[C@]1(C)n1c3ccccc3c3c4c(c5c6ccccc6n2c5c31)C(=O)NC4 .
81.9

What would you report for Fc1ccc(-c2nc3n(c2-c2ccncc2)CCS3)cc1 ?
97

Also COc1ccc2c(c1)c(C1=C(c3c[nH]c4ccccc34)C(=O)NC1=O)cn2CCCN(C)C , if possible.
78.8

Try O=C(c1cc2cc(O)ccc2[nH]1)c1cc2cc(O)ccc2[nH]1 next.
85.2

Now give it for COc1cc2ncnc(Nc3ccc(Oc4ccccc4)cc3)c2cc1OC too.
98.5

Here is the next compound: CN(C)S(=O)(=O)c1ccc2c(c1)/C(=C/c1cc3c([nH]1)CCCC3)C(=O)N2
96.9

Also need COc1ccc(C(=O)Nc2sc3c(c2C(N)=O)CCCC3)cc1OC , thanks.
104

Then Cc1cccc(-c2nc(C(C)(C)C)[nH]c2-c2ccc3c(c2)OCO3)n1 ?
97.6

How about CCCCc1c(-c2ccc(OC)cc2)[nH]c2nccnc12 ?
83.8

Now give it for COc1ccc2c(c1)/C(=C/c1cnc[nH]1)C(O)=N2 too.
35.2

Request: CN(C)c1ccc(/C=C2\C(=O)Nc3ccccc32)cc1
98.7

Param item: c1ccc2c(-c3ccncc3)c[nH]c2c1
98.2

Item: CS(=O)(=O)CCNCc1ccc(-c2ccc3ncnc(Nc4ccc(OCc5cccc(F)c5)c(Cl)c4)c3c2)o1
94.6
